Origin of the recorded values: patent US9283222B2

Catalogue of compounds with associated Ki
# tested.on: Recombinant Human Poly(ADP-Ribose) Polymerase (PARP), PARP-1 (Homo sapiens (Human))
# condition.label: read-out: PARP-1 (Ki); Table 1; text calls the values EC50s
experimental.endpoint: Ki (nM)

>>> recorded_measurement("CCOc1cc(CCNC(=O)c2cccc(Cc3n[nH]c(=O)c4c3CCCC4)c2)ccc1OC [Example 400]")
22
>>> recorded_measurement("C[C@@H]1CN(C(=O)c2ccccc2)CCN1C(=O)c1cc(Cc2n[nH]c(=O)c3c2NCCC3)ccc1F [Example 616]")
2.3
>>> recorded_measurement("O=C(NCCc1ccccc1Cl)c1cccc(Cc2n[nH]c(=O)c3c2CCCC3)c1 [Example 388]")
88
>>> recorded_measurement("N[C@H]1CC(=O)N(c2cc(Cc3n[nH]c(=O)c4c3CCCC4)ccc2F)C1=O [Example 583]")
2.3

----------
Catalogue of compounds with associated Ki
# tested.on: Recombinant Human Poly(ADP-Ribose) Polymerase (PARP), PARP-1 (Homo sapiens (Human))
# condition.label: read-out: PARP-1 (Ki); Table 1; text calls the values EC50s
experimental.endpoint: Ki (nM)

>>> recorded_measurement("CN(C(=O)c1cc(Cc2n[nH]c(=O)c3c2NCCC3)ccc1F)C1CCN(C(=O)c2ccncc2)CC1")
4
>>> recorded_measurement("O=C(c1cc(Cc2n[nH]c(=O)c3c2CCCC3)ccc1F)N1CCN(C(=O)[C@@H]2CSCN2)CC1")
1.4
>>> recorded_measurement("O=C(NC1CCN(C(=O)c2cn[nH]c2)CC1)c1cc(Cc2n[nH]c(=O)c3c2NCCC3)ccc1F")
9
>>> recorded_measurement("CN(C)C(=O)CN1CCN(C(=O)c2cc(Cc3n[nH]c(=O)c4c3NCCC4)ccc2F)CC1")
2
>>> recorded_measurement("NC(=O)C1(C(=O)Nc2cccc(Cc3n[nH]c(=O)c4c3CCCC4)c2)CC1")
77
>>> recorded_measurement("CC(C)c1ccc(C(=O)Nc2cccc(Cc3n[nH]c(=O)c4c3CCCC4)c2)cc1")
160
>>> recorded_measurement("O=C(CNC(=O)c1ccccc1)Nc1cccc(Cc2n[nH]c(=O)c3c2CCCC3)c1")
11
>>> recorded_measurement("CCNC(=O)c1ncccc1Cc1n[nH]c(=O)c2c1CCCC2")
2610
>>> recorded_measurement("O=C(NCC(=O)N1CCCCC1)c1cc(Cc2n[nH]c(=O)c3c2NCCC3)ccc1F")
10
>>> recorded_measurement("CN1CCN(CCNC(=O)c2cccc(Cc3n[nH]c(=O)c4c3CCCC4)c2)CC1")
24
>>> recorded_measurement("O=C1CCN1c1cc(Cc2n[nH]c(=O)c3c2CCCC3)ccn1")
21
>>> recorded_measurement("Cc1noc(C)c1C(=O)Nc1cccc(Cc2n[nH]c(=O)c3c2CCCC3)c1")
395
>>> recorded_measurement("COc1ccc(C(=O)CCC(=O)Nc2cc(Cc3n[nH]c(=O)c4c3CCCC4)ccc2F)cc1")
0.7
>>> recorded_measurement("CCNC(=O)c1ccc(Cc2n[nH]c(=O)c3c2CCCC3)cn1")
856
>>> recorded_measurement("O=C(NCc1ccncc1)c1cccc(Cc2n[nH]c(=O)c3c2CCCC3)c1")
131
>>> recorded_measurement("CCCOc1ccc(NC(=O)c2cccc(Cc3n[nH]c(=O)c4c3CCCC4)c2)cc1")
92
>>> recorded_measurement("O=C(c1cc(Cc2n[nH]c(=O)c3c2NCCC3)ccc1F)N1CCN(c2ccccc2F)CC1")
1
>>> recorded_measurement("CCC(=O)N1CCN(C(=O)c2cc(Cc3n[nH]c(=O)c4c3NCCC4)ccc2F)CC1")
0.8
>>> recorded_measurement("O=C(c1cccc(Cc2n[nH]c(=O)c3c2CCCC3)c1)N1CCN(c2ccc(F)cc2)CC1")
6
>>> recorded_measurement("CCN(C(C)=O)C1CCN(C(=O)c2cc(Cc3n[nH]c(=O)c4c3NCCC4)ccc2F)C1 (stereo not drawn)")
6
>>> recorded_measurement("CCCN(CCC)[C@@H](C)C(=O)Nc1cccc(Cc2n[nH]c(=O)c3c2CCCC3)c1")
1590
>>> recorded_measurement("O=c1[nH]nc(Cc2cccc(-c3cccc(CNC4CC4)c3)c2)c2c1CCCC2")
24
>>> recorded_measurement("CNC(=O)c1ccc(Cc2n[nH]c(=O)c3c2CCCC3)cn1")
840
>>> recorded_measurement("O=C(Nc1cccc(CCc2n[nH]c(=O)c3c2CCCC3)c1)C1CCCN(C(=O)OCc2ccccc2)C1 (stereo not drawn)")
556
>>> recorded_measurement("O=C(c1cccnc1)N1CCCN(C(=O)c2cc(Cc3n[nH]c(=O)c4c3NCCC4)ccc2F)CC1")
2.6
>>> recorded_measurement("CC(=O)Nc1cccc(-c2cccc(C(C)c3n[nH]c(=O)c4c3CCCC4)c2)c1 (stereo not drawn)")
58
>>> recorded_measurement("CSc1cccc(NC(=O)c2cccc(Cc3n[nH]c(=O)c4c3CCCC4)c2)c1")
94
>>> recorded_measurement("CC(=O)Nc1cccc(-c2cc(C(C)Cc3n[nH]c(=O)c4c3CCCC4)ccc2F)c1 (stereo not drawn)")
683
>>> recorded_measurement("CN(C(=O)c1cc(Cc2n[nH]c(=O)c3c2NCCC3)ccc1F)C1CCNCC1")
5
>>> recorded_measurement("COc1cc(NC(=O)c2cccc(Cc3n[nH]c(=O)c4c3CCCC4)c2)ccc1C")
154
>>> recorded_measurement("O=C(CCS(=O)(=O)c1ccccc1)Nc1cccc(Cc2n[nH]c(=O)c3c2CCCC3)c1")
21
>>> recorded_measurement("Cc1ccc(C)c(CCNC(=O)c2cccc(Cc3n[nH]c(=O)c4c3CCCC4)c2)c1")
65
>>> recorded_measurement("Nc1cc(Cc2n[nH]c(=O)c3c2CCCC3)ccc1O")
303

----------
Catalogue of compounds with associated log10 Ki
# tested.on: Recombinant Human Poly(ADP-Ribose) Polymerase (PARP), PARP-1 (Homo sapiens (Human), UniProt P09874)
# Sequence (P09874 whole entry): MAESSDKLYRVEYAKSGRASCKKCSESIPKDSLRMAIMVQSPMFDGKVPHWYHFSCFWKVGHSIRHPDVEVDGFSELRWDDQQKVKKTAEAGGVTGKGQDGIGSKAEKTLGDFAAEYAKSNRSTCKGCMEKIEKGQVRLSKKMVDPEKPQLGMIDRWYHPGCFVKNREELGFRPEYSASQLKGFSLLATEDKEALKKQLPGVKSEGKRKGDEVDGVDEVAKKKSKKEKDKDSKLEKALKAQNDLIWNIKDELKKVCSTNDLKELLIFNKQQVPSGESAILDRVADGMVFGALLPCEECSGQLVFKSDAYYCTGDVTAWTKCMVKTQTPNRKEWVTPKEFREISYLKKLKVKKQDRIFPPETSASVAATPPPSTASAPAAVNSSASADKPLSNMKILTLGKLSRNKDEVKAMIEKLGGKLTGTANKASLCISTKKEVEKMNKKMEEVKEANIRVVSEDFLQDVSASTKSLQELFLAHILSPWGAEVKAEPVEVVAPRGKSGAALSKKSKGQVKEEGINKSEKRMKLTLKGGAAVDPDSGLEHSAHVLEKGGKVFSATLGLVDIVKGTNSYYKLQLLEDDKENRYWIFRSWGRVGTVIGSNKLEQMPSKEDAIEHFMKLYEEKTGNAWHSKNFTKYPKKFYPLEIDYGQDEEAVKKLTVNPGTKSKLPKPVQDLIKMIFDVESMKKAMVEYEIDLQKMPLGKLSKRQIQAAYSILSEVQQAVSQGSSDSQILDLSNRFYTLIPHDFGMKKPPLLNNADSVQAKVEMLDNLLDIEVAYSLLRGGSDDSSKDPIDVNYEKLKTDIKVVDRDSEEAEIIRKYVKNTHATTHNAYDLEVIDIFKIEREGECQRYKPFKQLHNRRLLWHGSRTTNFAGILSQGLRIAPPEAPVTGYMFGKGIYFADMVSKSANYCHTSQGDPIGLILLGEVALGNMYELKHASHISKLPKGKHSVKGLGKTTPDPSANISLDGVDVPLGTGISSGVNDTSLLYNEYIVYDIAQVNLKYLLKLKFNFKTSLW
# condition.label: read-out: PARP-1 (Ki); Table 1; text calls the values EC50s
experimental.endpoint: log10 Ki (log10 of the value in µM)

>>> recorded_measurement("CCCCOc1ccc(C(=O)Nc2cccc(Cc3n[nH]c(=O)c4c3CCCC4)c2)cc1")
-0.58
>>> recorded_measurement("Cc1cncc(N2CCN(C(=O)c3cc(Cc4n[nH]c(=O)c5c4CCCC5)ccc3F)CC2)n1")
-2.80
>>> recorded_measurement("O=c1[nH]nc(Cc2ccc(-c3ccc(Cc4n[nH]c(=O)c5c4CCCC5)cn3)nc2)c2c1CCCC2")
-0.22
>>> recorded_measurement("CC(c1ccc(F)c(N2CCC2=O)c1)c1n[nH]c(=O)c2c1CCCC2 (centres unmarked)")
-1.25
>>> recorded_measurement("CC(=O)Nc1cccc(-c2cc(Cc3n[nH]c(=O)c4c3CCCC4)ccc2F)c1")
-2.70
>>> recorded_measurement("CCOc1ccccc1NC(=O)c1cccc(Cc2n[nH]c(=O)c3c2CCCC3)c1")
-0.44
>>> recorded_measurement("O=C(c1cncnc1)N1CCN(C(=O)c2cc(Cc3n[nH]c(=O)c4c3NCCC4)ccc2F)CC1")
-2.89
>>> recorded_measurement("O=C(Nc1cc(Cc2n[nH]c(=O)c3c2CCCC3)ccc1F)N[C@@H](Cc1ccccc1)C(=O)O")
-1.27
>>> recorded_measurement("Cc1ccc(C(=O)Nc2cccc(Cc3n[nH]c(=O)c4c3CCCC4)c2)cc1F")
-0.80
>>> recorded_measurement("COc1ccc(OC)c(CCC(=O)Nc2cccc(Cc3n[nH]c(=O)c4c3CCCC4)c2)c1")
-0.90
>>> recorded_measurement("O=c1[nH]nc(Cc2ccc(F)c(N3CCCS3(=O)=O)c2)c2c1CCCC2")
-2.52
>>> recorded_measurement("Cn1cncc1C(=O)N1CCCN(C(=O)c2cc(Cc3n[nH]c(=O)c4c3CCCC4)ccc2F)CC1")
-2.40
>>> recorded_measurement("O=C(Nc1ccc(Cc2n[nH]c(=O)c3c2CCCC3)cn1)c1ccccc1")
-0.54
>>> recorded_measurement("O=C(Nc1cccc(Cc2n[nH]c(=O)c3c2CCCC3)c1)C1=Cc2cc(Cl)ccc2OC1")
-1.85
>>> recorded_measurement("CC(C)NC(=O)Nc1cc(Cc2n[nH]c(=O)c3c2CCCC3)ccc1F")
-0.43
>>> recorded_measurement("O=C(Nc1cccc(Cc2n[nH]c(=O)c3c2CCCC3)c1)c1cccc(F)c1F")
-0.67
>>> recorded_measurement("Cc1ccc(NC(=O)c2cccc(Cc3n[nH]c(=O)c4c3CCCC4)c2)cc1O")
-0.84

----------
Catalogue of compounds with associated Ki
# tested.on: Recombinant Human Poly(ADP-Ribose) Polymerase (PARP), PARP-1 (Homo sapiens (Human), UniProt P09874)
# condition.label: read-out: PARP-1 (Ki); Table 3; H analogs versus para-F analogs
experimental.endpoint: Ki

>>> recorded_measurement("CCN1CCN(C(=O)c2cc(Cc3n[nH]c(=O)c4c3CCCC4)ccc2F)CC1 [drawing 31]")
"1.8 nM"
>>> recorded_measurement("O=C(c1cccc(Cc2n[nH]c(=O)c3c2CCCC3)c1)N1CCN(c2ccccn2)CC1 [drawing 32]")
"3 nM"
>>> recorded_measurement("O=C1CCCN1c1cc(Cc2n[nH]c(=O)c3c2CCCC3)ccc1F [drawing 17]")
"1.2 nM"
